Where do the numbers come from? From patent US6905854B2.

Experiment: Kinetic assay of purified DAOCS with penicillin N as main substrate
Assay type: biochemical
Details: for penicillin N; 0.5 μg purified DAOCS, 30° C., 10 minutes
Method: The cell extract (2 ml) of a candidate mutant was applied onto a HiTrap Q column (5 ml) pre-equilibrated with buffer B (50 mM Mops/pH 7.5, 1 mM DTT, 0.4 mM pefabloc SC, and 0.5 μg/ml leupeptin). […] The standard penicillin G assay was followed for kinetic assay, but 20 μg of purified DAOCS was used and the concentration of α-ketoglutarate was reduced to 1 mM. […] The filtrate was analyzed by HPLC using 25 mM potassium phosphate/pH 6.5 as a mobile phase. […]
Exercise: state measured kcat for each of the molecules provided.
Numbers only, in S^−1.

The cases that follow already have their kcat on record.
>>> recorded_measurement("YS72: mutated penicillin expandase (DAOCS) with substitution C155Y (protein, UniProt P18548 1-311, looked up, variant C155Y) Deacetoxycephalosporin C …: MDTTVPTFSLAELQQGLHQDEFRRCLRDKGLFYLTDCGLTDTELKSAKDLVIDFFEHGSEAEKRAVTSPVPTMRRGFTGLESESTAQITNTGSYSDYSMCYSMGTADNLFPSGDFERIWTQYFDRQYTASRAVAREVLRATGTEPDGGVEAFLDYEPLLRFRYFPQVPEHRSAEEQPLRMAPHYDLSMVTLIQQTPCANGFVSLQAEVGGAFTDLPYRPDAVLVFCGAIATLVTGGQVKAPRHHVAAPRRDQIAGSSRTSSVFFLRPNADFTFSVPLARECGFDVSLDGETATFQDWIGGNYVNIRRTSKA")
0.235
>>> recorded_measurement("YS110: mutated penicillin expandase (DAOCS) with substitution Y184H (protein, UniProt P18548 1-311, looked up, variant Y184H) Deacetoxycephalosporin C …: MDTTVPTFSLAELQQGLHQDEFRRCLRDKGLFYLTDCGLTDTELKSAKDLVIDFFEHGSEAEKRAVTSPVPTMRRGFTGLESESTAQITNTGSYSDYSMCYSMGTADNLFPSGDFERIWTQYFDRQYTASRAVAREVLRATGTEPDGGVEAFLDCEPLLRFRYFPQVPEHRSAEEQPLRMAPHHDLSMVTLIQQTPCANGFVSLQAEVGGAFTDLPYRPDAVLVFCGAIATLVTGGQVKAPRHHVAAPRRDQIAGSSRTSSVFFLRPNADFTFSVPLARECGFDVSLDGETATFQDWIGGNYVNIRRTSKA")
0.048
>>> recorded_measurement("YS49: mutated penicillin expandase (DAOCS) with substitution L277K (protein, UniProt P18548 1-311, looked up, variant L277K) Deacetoxycephalosporin C …: MDTTVPTFSLAELQQGLHQDEFRRCLRDKGLFYLTDCGLTDTELKSAKDLVIDFFEHGSEAEKRAVTSPVPTMRRGFTGLESESTAQITNTGSYSDYSMCYSMGTADNLFPSGDFERIWTQYFDRQYTASRAVAREVLRATGTEPDGGVEAFLDCEPLLRFRYFPQVPEHRSAEEQPLRMAPHYDLSMVTLIQQTPCANGFVSLQAEVGGAFTDLPYRPDAVLVFCGAIATLVTGGQVKAPRHHVAAPRRDQIAGSSRTSSVFFLRPNADFTFSVPKARECGFDVSLDGETATFQDWIGGNYVNIRRTSKA")
0.220

Each of the following entries comes with a recorded value; kindly state kcat for each.
1. YS87: mutated penicillin expandase (DAOCS) with substitution T91A (protein, UniProt P18548 1-311, looked up, variant T91A) Deacetoxycephalosporin C …: MDTTVPTFSLAELQQGLHQDEFRRCLRDKGLFYLTDCGLTDTELKSAKDLVIDFFEHGSEAEKRAVTSPVPTMRRGFTGLESESTAQITNAGSYSDYSMCYSMGTADNLFPSGDFERIWTQYFDRQYTASRAVAREVLRATGTEPDGGVEAFLDCEPLLRFRYFPQVPEHRSAEEQPLRMAPHYDLSMVTLIQQTPCANGFVSLQAEVGGAFTDLPYRPDAVLVFCGAIATLVTGGQVKAPRHHVAAPRRDQIAGSSRTSSVFFLRPNADFTFSVPLARECGFDVSLDGETATFQDWIGGNYVNIRRTSKA
2. YH2: mutated penicillin expandase (DAOCS) with substitution H244R (protein, UniProt P18548 1-311, looked up, variant H244R) Deacetoxycephalosporin C …: MDTTVPTFSLAELQQGLHQDEFRRCLRDKGLFYLTDCGLTDTELKSAKDLVIDFFEHGSEAEKRAVTSPVPTMRRGFTGLESESTAQITNTGSYSDYSMCYSMGTADNLFPSGDFERIWTQYFDRQYTASRAVAREVLRATGTEPDGGVEAFLDCEPLLRFRYFPQVPEHRSAEEQPLRMAPHYDLSMVTLIQQTPCANGFVSLQAEVGGAFTDLPYRPDAVLVFCGAIATLVTGGQVKAPRHRVAAPRRDQIAGSSRTSSVFFLRPNADFTFSVPLARECGFDVSLDGETATFQDWIGGNYVNIRRTSKA
3. YS67: mutated penicillin expandase (DAOCS) with substitutions V275I and I305M (protein, UniProt P18548 1-311, looked up, variant V275I I305M) Deacetoxycephalosporin C …: MDTTVPTFSLAELQQGLHQDEFRRCLRDKGLFYLTDCGLTDTELKSAKDLVIDFFEHGSEAEKRAVTSPVPTMRRGFTGLESESTAQITNTGSYSDYSMCYSMGTADNLFPSGDFERIWTQYFDRQYTASRAVAREVLRATGTEPDGGVEAFLDCEPLLRFRYFPQVPEHRSAEEQPLRMAPHYDLSMVTLIQQTPCANGFVSLQAEVGGAFTDLPYRPDAVLVFCGAIATLVTGGQVKAPRHHVAAPRRDQIAGSSRTSSVFFLRPNADFTFSIPLARECGFDVSLDGETATFQDWIGGNYVNMRRTSKA
4. YS103: mutated penicillin expandase (DAOCS) with substitution M188V (protein, UniProt P18548 1-311, looked up, variant M188V) Deacetoxycephalosporin C …: MDTTVPTFSLAELQQGLHQDEFRRCLRDKGLFYLTDCGLTDTELKSAKDLVIDFFEHGSEAEKRAVTSPVPTMRRGFTGLESESTAQITNTGSYSDYSMCYSMGTADNLFPSGDFERIWTQYFDRQYTASRAVAREVLRATGTEPDGGVEAFLDCEPLLRFRYFPQVPEHRSAEEQPLRMAPHYDLSVVTLIQQTPCANGFVSLQAEVGGAFTDLPYRPDAVLVFCGAIATLVTGGQVKAPRHHVAAPRRDQIAGSSRTSSVFFLRPNADFTFSVPLARECGFDVSLDGETATFQDWIGGNYVNIRRTSKA

Resp:
1. 0.247
2. 0.236
3. 0.316
4. 0.084
